- assay remarks: qHTS for Inhibitors of human tyrosyl-DNA phosphodiesterase 1 (TDP1): qHTS in cells in absence of CPT; note: nearly all actives have a fitted effect of over 55% in size; note: potency is the fitted concentration of half-maximal effect
- condition description: DT40 Tdp1-/- hTDP1 cells, no CPT, ATP luminescence, 48 h
Out of some 420,000 compounds screened, about 64,000 (15%) were called active. Another 27% or so got no clear call; they are omitted. Not all results are given here.
property label: Potency

COc1ccc(OC)c2sc(N3CCN(C(=O)C4COc5ccccc5O4)CC3)nc12 (stereo not drawn) ... 16.4 µM (active)
COc1ccc(NC(=O)C2COc3ccccc3O2)cc1 (stereo not drawn) ... inactive
C=CCSc1nnc(Cn2c(=O)sc3ccccc32)n1C ... inactive
Cc1ccccc1CSc1nnc(-c2cccnc2)n1N ... inactive

stdin: Consider the compound Cc1ccc(S(=O)(=O)NCC(=O)N2CCN(c3ccccn3)CC2)cc1 and give its measured Potency.
stdout: inactive

====

- assay remarks: qHTS for Inhibitors of human tyrosyl-DNA phosphodiesterase 1 (TDP1): qHTS in cells in absence of CPT; note: nearly all actives have a fitted effect of over 55% in size
- condition description: DT40 Tdp1-/- hTDP1 cells, no CPT, ATP luminescence, 48 h
The campaign covered roughly 420,000 compounds. About 64,000 (15%) were called active. Not shown: some 27% with an inconclusive outcome. Calls follow the shape of the dose curve; as a rule, active = well fitted inhibition curve with a large enough effect; inconclusive = small, poorly fitted or top-dose-only effect; inactive = flat fitted curve, though single readings scatter. The list is a sample of the results.
Select the matching outcome among 1 = active, 0 = inactive

stdin: In this assay, the call recorded for O=C(COC(=O)C1(c2ccc(F)cc2)CCCC1)N1CCNC1=O was what?
stdout: 0

stdin: What do you get for Cc1ccc(-n2c(-c3ccc(Cl)cc3)n[nH]c2=S)cc1 ?
stdout: 0

stdin: Would you mind doing Cc1cc(C(=O)COC(=O)CCCN2C(=O)c3ccccc3C2=O)c(C)n1C as well?
stdout: 0

stdin: For COc1cccc(Nc2ncc3ncc(=O)n(C4CC4)c3n2)c1 then?
stdout: 1

stdin: Next molecule: CSC(=S)N/N=C/c1c[nH]c2ccccc12
stdout: 1

stdin: And Cc1ccc(-n2c3nc(=O)[nH]c(=O)c-3cc3c(Cl)cccc32)cc1 ?
stdout: 1

stdin: Same for COc1ccc(-c2c(-c3cc(OC)cc(OC)c3)n(C)c3ccc(-c4ccn[nH]4)cc23)cc1
stdout: 1

stdin: Note, next up: CC(=O)Nc1ccc(S(=O)(=O)NC2(C(F)(F)F)C(=O)Nc3c2c(=O)[nH]c(=O)n3Cc2ccccc2)cc1 (stereo unspecified)
stdout: 0

stdin: Please answer likewise for O=c1[nH]c(CN2CCOCC2)nc2scc(-c3ccccc3)c12
stdout: 0

stdin: Then O=C1NC(=O)C(CCc2ccccc2)(c2ccccc2)N1 (stereo unspecified) ?
stdout: 0

stdin: // next record CCn1c(SCC(=O)Nc2ccc(Br)cc2)nc2sc3c(c2c1=O)CCN(C)C3
stdout: 0

====

- assay remarks: qHTS for Inhibitors of human tyrosyl-DNA phosphodiesterase 1 (TDP1): qHTS in cells in absence of CPT; note: nearly all actives have a fitted effect of over 55% in size
- condition description: DT40 Tdp1-/- hTDP1 cells, no CPT, ATP luminescence, 48 h
Among all 420,000 compounds or so, about 64,000 (15%) were called active. About 27% were inconclusive and are not listed. The call rests on the fitted dose curve; in most records, active means well fitted inhibition curve with a large enough effect; inconclusive means small, poorly fitted or top-dose-only effect; inactive means flat fitted curve, though single readings scatter. Not all results are given here.
API: response.call in y (active), n (inactive)

stdin: Recorded call for O=C1Cc2cc(S(=O)(=O)Nc3ccc(OC(F)(F)F)cc3)cc3c2N1CCC3 ?
stdout: y

stdin: How about this compound: CCOC(=O)C1=C(C)NC(=S)NC1c1cccs1 (stereo unspecified)
stdout: n

stdin: Now consider O=C(Nc1cccc(Cl)c1)OCc1ccccn1 .
stdout: n

stdin: Now give it for O=S(=O)(c1ccc(F)cc1)N1CCN(Cc2ccccc2C(F)(F)F)CC1 too.
stdout: n

stdin: Try this compound too: CCCCNc1c(-c2cccc(Sc3ccc(OC)cc3)c2)nc2ccccn12
stdout: y

stdin: Follow-up entry: Cc1ccc(OCC(=O)Nc2ccccc2C(=O)NC2CC2)cc1C
stdout: n
